- assay method text: qHTS assay for identifying genotoxic compounds that show differential cytotoxicity against isogenic chicken DT40 cell lines with known DNA damage response pathways - Rad54/Ku70 mutant cell line (AID 743015); note: nearly all actives have a fitted effect of over 60% in size
- condition parameters: DT40 Rad54/Ku70 mutant viability, CellTiter-Glo, 40 h; series mostly up to 66.8 µM
Records with an inconclusive call do not appear. Active and inactive are the calls of the source. Calls come from the whole dose curve; as a rule, active = well fitted cell-killing curve with a large enough effect in the repeat runs; inconclusive = weak or mixed curves; inactive = no such curve, though single readings can be large or run the other way.
readout: outcome

Problem: Would you kindly share the measured outcome for C[N+]1(C)[C@@H]2CC[C@H]1CC(OC(=O)C(CO)c1ccccc1)C2 (stereo partly drawn) ?
Solution: inactive

Problem: Another compound to look at: CN=C=O
Solution: inactive

Problem: Cool, now BrCCCBr
Solution: inactive

----------
- assay method text: qHTS assay to identify small molecule agonists of the estrogen related receptor (ERR) signaling pathway from Tox21 library (AID 1224849); note: nearly all actives have a fitted effect of over 15% in size
- condition parameters: ERR reporter cell line, ONE-Glo luciferase, 18 h; at 92.4 µM (top of the series) unless noted
Calls of active or inactive are those of the source. Calls come from the whole dose curve.
Lab note: assign the record to one of active, inactive

Recorded results for 3 compounds are shown here.
Problem: Write down the call the test reported for this compound. Item: C=CCOC(=O)c1ccccc1N
Solution: inactive

Problem: Request: CCOC(=O)CCN(SN(C)C(=O)Oc1cccc2c1OC(C)(C)C2)C(C)C
Solution: inactive

Problem: Please answer likewise for C=C(C)C(=O)[O][Sn]([CH2]CCC)([CH2]CCC)[CH2]CCC
Solution: inactive

Further cases:
Problem: Outcome logged for Cc1cnc2c(C(=O)O)c(Cl)ccc2c1 in this assay:
Solution: inactive

Problem: Please do the same for CN1C(=O)[C@@H](NC(=O)c2cc3ccccc3[nH]2)N=C(c2ccccc2)c2ccccc21 as well.
Solution: inactive

Problem: What about CCN1CCC2(CC1)COc1cc3c(cc12)N(C(=O)c1ccc(-c2ccc(-c4nnc(C)o4)cc2C)cc1)CC3 ?
Solution: inactive

----------
- assay method text: qHTS assay for identifying genotoxic compounds that show differential cytotoxicity against isogenic chicken DT40 cell lines with known DNA damage response pathways - wild type cell line (AID 743012); note: nearly all actives have a fitted effect of over 60% in size
- condition parameters: DT40 wild type chicken cells viability, CellTiter-Glo, 40 h; series mostly up to 68.4 µM
Records with an inconclusive call do not appear. Activity calls are given as the source filed them. Calls come from the whole dose curve; as a rule, active = well fitted cell-killing curve with a large enough effect in the repeat runs; inconclusive = weak or mixed curves, or effect the other way; inactive = no such curve, though single readings can be large or run the other way.
Respond using exactly one of the listed classes: YES (active), NO (inactive)

Problem: Please indicate how the test categorized CC(=O)[O-].CC(=O)[O-].O.O.O.[Pb+2] .
Solution: NO

Others:
Problem: Write down the call the test reported for this compound. Item: Brc1ccc(Oc2ccc(Br)cc2Br)c(Br)c1
Solution: NO

Problem: What do you get for Cc1c([N+](=O)[O-])cc2c(c1[N+](=O)[O-])C(C)(C)CC2(C)C ?
Solution: NO

Problem: Another compound to check: O=[N+]([O-])c1ccc(CCl)cc1
Solution: NO

Problem: Entry CC(C)[C@@H](Nc1ccc(C(F)(F)F)cc1Cl)C(=O)OC(C#N)c1cccc(Oc2ccccc2)c1 (some centres not stated) please
Solution: NO

Problem: Param item: Clc1ccc(C2(Cn3cncn3)OCCO2)c(Cl)c1
Solution: YES

Problem: Also O=C(O)[C@H](O)[C@@H](O)C(=O)O ?
Solution: NO

Problem: O=C(Cl)c1ccccc1F , same question.
Solution: NO

Problem: // next record CN1C(=O)[C@@H](NC(=O)c2cc3ccccc3[nH]2)N=C(c2ccccc2)c2ccccc21
Solution: YES

Problem: Here is the next compound: CC(=O)[O-].CC(=O)[O-].O.O.[Zn+2]
Solution: NO

Problem: And CN/C(=N\[N+](=O)[O-])NCc1cnc(Cl)s1 ?
Solution: NO

Problem: What about CC(Cl)CCl (configuration not stated) ?
Solution: NO

Problem: Then this compound: O=[N+]([O-])c1ccc(Cl)c(Cl)c1Cl
Solution: NO

Problem: Okay, and CCC1(CC)C(=O)N=C(O)NC1=O ?
Solution: NO

Problem: Now consider C#CC1(O)CCCCC1 and answer again.
Solution: NO

Problem: Okay, and Nc1nc(N)c(N)c(N)n1 ?
Solution: NO

Problem: Next record, please: CC(Cc1ccc(O)cc1)NCC(O)c1cc(O)cc(O)c1 (configuration not stated)
Solution: NO

Each recorded value in this set is attributed to PubChem BioAssay (Tox21).
